System Under Test: p38a/PRAK (Homo sapiens (Human), UniProt Q16539)
Sequence (Q16539 whole entry): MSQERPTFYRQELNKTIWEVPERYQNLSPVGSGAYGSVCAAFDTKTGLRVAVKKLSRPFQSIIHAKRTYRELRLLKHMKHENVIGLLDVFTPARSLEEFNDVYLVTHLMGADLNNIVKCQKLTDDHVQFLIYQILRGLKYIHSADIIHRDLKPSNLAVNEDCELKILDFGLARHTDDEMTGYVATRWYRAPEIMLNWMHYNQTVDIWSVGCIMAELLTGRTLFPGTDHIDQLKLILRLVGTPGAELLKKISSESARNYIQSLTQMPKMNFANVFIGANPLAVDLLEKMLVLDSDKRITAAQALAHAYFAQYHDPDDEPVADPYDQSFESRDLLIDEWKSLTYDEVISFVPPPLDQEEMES
Assay Explanation: p38a/PRAK biochemical assay: activation of PRAK by p38, FITC-HSP27 peptide phosphorylation (IMAP FP)
Assay Context: 10-point 1:3 dilution, top dose 300 μM; 60 pM active p38a, 1 nM inactive PRAK, 10 μM ATP, 2 h incubation; read-out: p38a/PRAK Enzyme pIC50 (converted)
Overview of reported IC50 across a group of compounds:

Below: 2 compounds and their reported IC50.
>>> assay_result("Cc1cnc(-c2cccc([C@@H](O)CO)n2)cc1-n1c(C)cc(OCc2ncc(F)cc2F)c(Cl)c1=O (single isomer, unassigned) [Example 34D]")
"> 316 µM"
>>> assay_result("Cc1cnc(-c2ccc3c(n2)[C@@H](O)CC3)cc1-n1c(C)cc(OCc2ncc(F)cc2F)c(Cl)c1=O (single isomer, unassigned) [Example 18B]")
"> 316 µM"

Now let's try a different one.
Problem: Which value of IC50 has been reported for Cc1cnc(-c2ccnc(CC3(O)CC3)n2)cc1-n1c(C)cc(OCc2ncc(F)cc2F)c(Cl)c1=O (single isomer, unassigned) [Example 48A] in the records?
Solution: 2 µM
